Where do the numbers come from? From ChEMBL document CHEMBL3992549.

assay: Cytotoxicity against human OVK18 cells assessed as reduction in cell viability after 72 hrs by WST8 assay; format: functional, cell-based; settings: OVK18, 72 h
Below, each of the compounds is paired with its reported EC50 value.
State just the number; it will be interpreted in nM.

COc1ccc(/C=C\c2cc(OC)c(OC)c(OC)c2)cc1O[C@@H]1O[C@H](CO)[C@H](O)[C@H](O)[C@H]1O	252
COc1ccc(/C=C\c2cc(OC)c(OC)c(OC)c2)cc1O [COMBRETASTATIN A4]	1.99

(Q) What EC50 value was documented for this compound, COc1ccc(/C=C\c2cc(OC)c(OC)c(OC)c2)cc1OCc1ccc(O[C@@H]2O[C@H](CO)[C@H](O)[C@H](O)[C@H]2O)cc1 ?
(A) 2.67
